bioavailability values by entry
# EXPERIMENT DESCRIPTION: Oral bioavailability in Hartley guinea pig at 10 mg/kg
# Format: ADME, organism-based, Cavia porcellus
# COND: in vivo
QUANTITY NAME: bioavailability (%)

- MOLECULE SMILES: "CCS(=O)(=O)N1CCN(c2ccc(OC[C@@H]3CO[C@@](Cn4ccnc4)(c4ccc(Cl)cc4Cl)O3)cc2)CC1"
  OBS VALUE: 61.4
- MOLECULE SMILES: "CC(C)S(=O)(=O)N1CCN(c2ccc(OC[C@@H]3CO[C@@](Cn4ccnc4)(c4ccc(Cl)cc4Cl)O3)cc2)CC1"
  OBS VALUE: 10.4
- MOLECULE SMILES: "N#CCS(=O)(=O)N1CCN(c2ccc(OC[C@@H]3CO[C@@](Cn4ccnc4)(c4ccc(Cl)cc4Cl)O3)cc2)CC1"
  OBS VALUE: 39.5
- MOLECULE SMILES: "O=S(=O)(C1CC1)N1CCN(c2ccc(OC[C@@H]3CO[C@@](Cn4ccnc4)(c4ccc(Cl)cc4Cl)O3)cc2)CC1"
  OBS VALUE: 98.5

----------
AUC(0-inf) values by entry
# EXPERIMENT DESCRIPTION: AUC (0 to infinity) in Hartley guinea pig at 10 mg/kg, po administered as single dose
# Assay type: ADME, organism-based, Cavia porcellus
# Design: dose 10 mg/kg, route oral, time infinity
# COND: in vivo
QUANTITY NAME: AUC(0-inf)

- MOLECULE SMILES: "CC(C)S(=O)(=O)N1CCN(c2ccc(OC[C@@H]3CO[C@@](Cn4ccnc4)(c4ccc(Cl)cc4Cl)O3)cc2)CC1"
  OBS VALUE: "571 ng·h/mL"
- MOLECULE SMILES: "N#CCS(=O)(=O)N1CCN(c2ccc(OC[C@@H]3CO[C@@](Cn4ccnc4)(c4ccc(Cl)cc4Cl)O3)cc2)CC1"
  OBS VALUE: "4600 ng·h/mL"
- MOLECULE SMILES: "O=S(=O)(C1CC1)N1CCN(c2ccc(OC[C@@H]3CO[C@@](Cn4ccnc4)(c4ccc(Cl)cc4Cl)O3)cc2)CC1"
  OBS VALUE: "7580 ng·h/mL"
- MOLECULE SMILES: "CCS(=O)(=O)N1CCN(c2ccc(OC[C@@H]3CO[C@@](Cn4ccnc4)(c4ccc(Cl)cc4Cl)O3)cc2)CC1"
  OBS VALUE: "3710 ng·h/mL"

----------
# EXPERIMENT DESCRIPTION: AUC (0 to infinity) in Hartley guinea pig at 1 mg/kg, iv administered as single dose
# Assay type: ADME, organism-based, Cavia porcellus
# Parameters: dose 1 mg/kg, route intravenous, time infinity
# COND: in vivo
QUANTITY NAME: AUC(0-inf)

- MOLECULE SMILES: "CC(C)S(=O)(=O)N1CCN(c2ccc(OC[C@@H]3CO[C@@](Cn4ccnc4)(c4ccc(Cl)cc4Cl)O3)cc2)CC1"
  OBS VALUE: "547 ng·h/mL"
- MOLECULE SMILES: "O=S(=O)(C1CC1)N1CCN(c2ccc(OC[C@@H]3CO[C@@](Cn4ccnc4)(c4ccc(Cl)cc4Cl)O3)cc2)CC1"
  OBS VALUE: "715 ng·h/mL"
- MOLECULE SMILES: "CCS(=O)(=O)N1CCN(c2ccc(OC[C@@H]3CO[C@@](Cn4ccnc4)(c4ccc(Cl)cc4Cl)O3)cc2)CC1"
  OBS VALUE: "560 ng·h/mL"
- MOLECULE SMILES: "N#CCS(=O)(=O)N1CCN(c2ccc(OC[C@@H]3CO[C@@](Cn4ccnc4)(c4ccc(Cl)cc4Cl)O3)cc2)CC1"
  OBS VALUE: "1160 ng·h/mL"
